Assay: soluble on expression in E. coli; label from the status in PepcDB or PDB records
readout.kind: soluble on expression in E. coli

# example entries with known answers
construct_sequence=MTQKEISIIHPRPSSIVAALYTLRDLNVDVAILHGPPGCSFKHARLLEEDGIHVVTTGLDENGFVFGGHDKLVQVINKSIELFNPKILGVVGTCASMIIGEEMHEAVLEANPDIPVIEVEVHAGYHNNTKGVIFALESALDAGIIDHKEFERQEYLEHHHHHH test_result="not soluble"
construct_sequence=MGSDKIHHHHHHMKVFVIGAGLMGRGIAIAIASKHEVVLQDVSEKALEAAREQIPEELLSKIEFTTTLEKVKDCDIVMEAVFEDLNTKVEVLREVERLTNAPLCSNTSVISVDDIAERLDSPSRFLGVHWMNPPHVMPLVEIVISRFTDSKTVAFVEGFLRELGKEVVVCKGQSLVNRFNAAVLSEASRMIEEGVRAEDVDRVWKHHLGLLYTLFGPLGNLDYIGLDVAYYASLYLYKRFGDEKFKPPEWLQEKIKKGEVGVKAGKGIYEYGPKAYEERVERLKKLLRFLGLE test_result=soluble
construct_sequence=SPAPVQDPHLIKVTVKTPKDKEDFSVTDTCTIQQLKEEISQRFKAHPDQLVLIFAGKILKDPDSLAQCGVRDGLTVHLVIKRQHRAMGNECPA test_result=soluble
construct_sequence=MSLDGKPTIIIKYGKIDEEAMKSQRYNFDDLMVQLRENSIDRVADVSFAILEPSGKLTIVKKENSGEHRQLEMPLIIDGFIQTENLSRISKDRKWLLESLQKHGYTNPSDISFCSFTDGEIYIDEKDGHRTKGIITITTDPNSSSVDKLAAALEHHHHHH test_result=soluble

In plain terms, "EHDNTSYICKKIDEDEYVLSARLEIEKVNEMFGLDLPESDDYLTVGGLILNQYQSFPKLHELVRVGRYQFKIIKVTATKIELVRLKVME" has a documented soluble on expression in E. coli of not soluble

---

Assay: soluble on expression in E. coli; label from the status in PepcDB or PDB records
readout.kind: soluble on expression in E. coli

# example entries with known answers
construct_sequence=TLTTTPNQLTDGLEKSLRPLNKIHVPVHEIAMMMSIALRFIPILLEETDKIMKAQIARGADFENGNLIQKVKNMVPLLVPLFISAFRRANDLAMAMEARCYHGGDNRTQMKPLKYKKRD test_result="not soluble"
construct_sequence=MNYPLIFAENQRIETERLILRPVTLADAEDMYEYASDEETVRYVFLKNQTIAETRQNIAKFFMGEPLGKYGIEVKETGKMIGTIDLRVNETNNIGELGYVLNRTFWGNGYMPEAATALVELGFAKMKLMRIFALHDQDNPASGRVMEKIGFTYEGTLPNARISKGKIVTDVYRGMTLETWQNRQK test_result=soluble
construct_sequence=MFVYYIYTIIKSQSKSTPHHYHPCWSNSAAGLKKWGGFMNIKNNRRRRASRDAIENIFIELLQTKSLNEITVSDICKKAGLNRSTFYANYMDIYQLADTIRETLEDNLNDLYRSEIAGGYNSNDYLPLFRHIKENQPFYNTYFKLGYDNQYKIFKYDTALARDHFGNRFIDYHCEFFKSGITAIIKHWLSNGCLETPEEINGILMSEYRGRKMEET test_result="not soluble"
construct_sequence=INDWSYSIGANFSYVTTKIMDLKGGDTPGQSVGDPLWAYYGYVCDGIFQNEEEIKNHPTQSMGTPVPGDLKYRDLNGDKVVDSKDRQVLGSYFPKINFGLNLSVQYKDFDLSALLQGAADVKSAPVAEIRYAFYNGGKVTEQHLDRWTPENPNATYPRLSMSDSKNRVTSSFWMQDASYAKLRNLQVGYSLPKQLISKYGISRLRVYCSIDNLFMISGFDGVDPEAISGNYYPLTRNYSFGLNVTF test_result="not soluble"
construct_sequence=MGSDKIHHHHHHMSFDNLCKLLSEKHPATFASWVLGTPQTSVKVLKTELSIEPIRADYVTFLQLQGRILHLEFQTKLESTPPLPLRMLDYWVRLYRLYRLPITQVVVLLLPPAPGTVIETVFCVETTRHEYRVIRLWEENPELFLNEPALLPLAPLAATTQPQALLQQVVGKVNQLEPRQRPEISAYTQILAGLKYNQDLIRQLFREGMMRESVIYQEILAEGEQLGELRGRKAEGQLLILRQLTRRVGELPQEMLNRIETLSLEQLENLGEALLDFQAIADLEAWFGTLDIGVKMT test_result="not soluble"

In plain terms, "MYINVVKCMWKQIKHRFEGYPSRMYVARKIIDLGFRIDRNGKIYCDDVEISDVALARAVGVDRRTVRATANTILEDEKLRGIFENMMPAGALLRDAAGELDFGVVEIEADARNPGILAAAARLIADKGISIRQAHAGDPELDETPRLTIITETPIPGGLLKDFLKIDGVKRVSIY" has a documented soluble on expression in E. coli of soluble

In plain terms, "HHHHHHGSGAVKLSVSYRNGTLFIMVMHIKDLVTEDGADPNPYVKTYLLPDTHKTSKRKTKISRKTRNPTFNEMLVYSGYSKETLRQRELQLSVLSAESLRENFFLGGITLPLKDFNLSKETVKWYQLTAATYL" has a documented soluble on expression in E. coli of soluble

In plain terms, "QLERGQEKQALEQAILARTDAPYQSLASVLDNNDWREESVIGVKVQAEAKPEPLPVVLLDNQTFQGKVGYLAYQVVSVGQDPITLALLELGFVEGLRTRDSLPTVTTLTSPTNVTGRLYRKSMNPLSSELMPEMGEGIRVQNLNISELNELLNVELMPAVLQPDNLENWAYPFPWNPLPLTSAKHFGYAVQ" has a documented soluble on expression in E. coli of not soluble

In plain terms, "MGSDKIHHHHHHIRPIQRGKANAKVEFGAKIDCSLSEGVVDIERFDFTAFSEGQDFTETLDHYYDLHGHYPDEVLADTLYRNRENLKLCKDLGIRVCGPKLGRHPKNVDAAKRREDTDAENRRGTIERRFAFMKGTLGLDLVNTRTAESLAVKIDAAIVLSNALTLLRVFAIPILILAKFEGEAYRIRYKFTTRVEDMLA" has a documented soluble on expression in E. coli of not soluble

In plain terms, "MGSDKIHHHHHHMQITKRNVELRVDDSLMRVYVASPKPVGVYPGIVFYSDIYQLGSPIIRLANYLAGFGYVVAAPEIFHRLEPIGLVIEPDDLGRMRGNDNARRTAIAEYDADSRAVIDFLKAETTVNANKIGTVGFCIGGHLAFRAAFENEVKASACCYPTGIPSGKLGKGVADTIHRVKEIKGEMLLVLGTLDPHIPESDRQILIKAIEDAKVPHKVVLYEAEHTFMRDDGYRYDSAATTFAWAEIVEFLGRVFAD" has a documented soluble on expression in E. coli of not soluble

In plain terms, "MAHHHHHHMSIAKKRLAQERAEWRKDHPAGFSAKYSPMSDGKGLDIMKWICKIPGKKGGLWEGGEYPLTMEFTEDYPSKPPKCKFTTVLFHPNIYPSGTVCLSILNEDEDWKPSITIKQILLGIQDLLDNPNPNSPAQAEPFLLYQQDRDSYEKKVKKQAIEFRPKD" has a documented soluble on expression in E. coli of not soluble

In plain terms, "MGCEPKRDCGCCQNSICEFLQSLEPYTKVESIIIAGNEIAVSYFLSFNKKTGIVSFVQEDNEVIFVDCSKIDAIRIGKVCSCKTKVKYIEEDFSLLGNVCPHCLTEGSTIFFDFNNPELNVSFQATTINPPRCTEFTDDLGNVVKQITIVGEAKVSRDFVQVPELVGFRLLLSHLAGDPLNYGLLFINFPDTIFIFILASSGYLSISNCLKIEGGTGDAEIEEMKKMIEDDVNTYKSVVKLTKVYKNGETESFIYKNEL" has a documented soluble on expression in E. coli of not soluble

In plain terms, "MPFFANSDPMMSKLSQIQFADAPTLKGDKYPDVDAHRIIAPIISPIMEVFDQMKENQRARDQAEKIRKDREDHPLSTSRSLWEMFQRLQRPTTTTTEAPPLIERLFKPYIEPWQKQLDDFSKDMAGITLIPTTTTTPAPTTTTTPNFLEKSLSMFFPSLRRKPQSIPTLPPTTTPTPRLFDPEMFDRLFFKRDKRQATIAPAPKFDIFTVPPPPPLFQEWEKPILSLSNPFTLNPLMKMFTTPSPPQTLAPLPKIPEPNPYEIKKGLPEPQFKLQDPFYNPLFPSRKSKMFDFLAGGEAGRLLG" has a documented soluble on expression in E. coli of not soluble
